Value source: the supplement of paper PMC8728848

List of glycan array binding signal (z-score) values.
- tested.system: Neu5Ac(a2-6)Gal(b1-4)GlcNAc(b1-2)Man(a1-3)[Neu5Ac(a2-6)Gal(b1-4)GlcNAc(b1-2)Man(a1-6)]Man(b1-4)GlcNAc(b1-4)GlcNAc
- assay.procedure: glycan array binding signal (z-score within array); higher = stronger binding
- test.parameters: glycan notation: IUPAC condensed, linker removed
The entries come from a sample that favours the strongest signals as a whole.

{"binder": "OVGAL11 (Ovis aries), AAF64320 (protein) MDSLPNPYLQSVSLTVCYMVKIKANLLSAFGKNPELQVDFGTGTGQGGNIPFRFWYCDGMVVMNTFTDGSWQKEEKVLTDAFVPGQPFELQFLVLEKEYQVFVKNKPICQFAHRLPLQSVKMLDVRGDIVLTSVDTL", "glycan array binding signal (z-score)": -0.138}
{"binder": "CVNH0 (Neurospora crassa), Q7S6U4 (protein) GSHIGPYMSFHVTAEDARIEVRDNRTILFARLRREDGEWNDASYELDQIIGNNDGHFQWGGQNFTETAEDIRFHPKEGAAEQPILRARLRDCNGEFHDRDVNLTEIVENVNGEFQAKF", "glycan array binding signal (z-score)": -0.408}
{"binder": "Regenerating Gene I (Homo sapiens), P05451 (protein) MAQTSSYFMLISCLMFLSQSQGQEAQTELPQARISCPEGTNAYRSYCYYFNEDRETWVDADLYCQNMNSGNLVSVLTQAEGAFVASLIKESGTDDFNVWIGLHDPKKNRRWHWSSGSLVSYKSWGIGAPSSVNPGYCVSLTSSTGFQKWKDVPCEDKFSFVCKFKN", "glycan array binding signal (z-score)": -0.473}
{"binder": "OGAA (protein) MVQKESQATLEERESELSSNPAASAGASLEPPAAPAPGEDNPAGAGGAAVAGAAGGARRFLCGVVEGFYGRPWVMEQRKELFRRLQKWELNTYLYAPKDDYKHRMFWREMYSVEEAEQLMTLISAAREYEIEFIYAISPGLDITFSNPKEVSTLKRKLDQVSQFGCRSFALLFADIDHNMCAADKEVFSSFAHAQVSITNEIYQYLGEPETFLFCPTEYCGTFCYPNVSQSPYLRTVGEKLLPGIEVLWTGPKVVSKEIPVESIEEVSKIIKRAPVIWDNIHANDYDQKRLFLGPYKGRSTELIPRLKGVLTNPNCEFEANYVAIHTLATWYKSNMNGVRKDVVMTDSEDSTVSIQIKLENEGSDEDIETDVLYSPQMALKLALTEWLQEFGVPHQY", "glycan array binding signal (z-score)": -0.079}
{"binder": "Calsepa (Calystegia sepium), P93114 (protein) MAVPMDTISGPWGNNGGNFWSFRPVNKINQIVISYGGGGNNPIALTFSSTKADGSKDTITVGGGGPDSITGTEMVNIGTDEYLTGISGTFGIYLDNNVLRSITFTTNLKAHGPYGQKVGTPFSSANVVGNEIVGFLGRSGYYVDAIGTYNRHK", "glycan array binding signal (z-score)": 4.29}
{"binder": "Gal 4 (Homo sapiens), Q8K419 (protein) MAYVPAPGYQPTYNPTLPYKRPIPGGLSVGMSVYIQGMAKENMRRFHVNFAVGQDDGADVAFHFNPRFDGWDKVVFNTMQSGQWGKEEKKKSMPFQKGKHFELVFMVMPEHYKVVVNGNSFYEYGHRLPVQMVTHLQVDGDLELQSINFLGGQPAAAPYPGAMTIPAYPAGSPGYNPPQMNTLPVMTGPPVFNPRVPYVGALQGGLTVRRTIIIKGYVLPTARNFVINFKVGSSGDIALHLNPRIGDSVVRNSFMNGSWGAEERKVAYNPFGPGQFFDLSIRCGMDRFKVFANGQHLFDFSHRFQAFQMVDTLEINGDITLSYVQI", "glycan array binding signal (z-score)": -0.187}
{"binder": "M6PR (Bos taurus), P11456 (protein) MMSPLHSSWRTGLLLLLLFSVAVRESWQTEEKTCDLVGEKGKESEKELALLKRLTPLFNKSFESTVGQSPDMYSYVFRVCREAGNHSSGAGLVQINKSNGKETVVGRFNETQIFNGSNWIMLIYKGGDEYDNHCGREQRRAVVMISCNRHTLADNFN", "glycan array binding signal (z-score)": -0.279}
